Entries and their melting point

Consider the worked cases shown below.
compound: O=C(OC1CCN(c2ncc(-c3ccccc3Cl)cn2)CC1)N1CCC(O)CC1
melting point: 124 to 126 °C
//
compound: CCCCS(=O)(=O)ON=C(C#N)c1ccc(OC)cc1
melting point: 71 °C
//
compound: CN(Cc1ccccc1)c1cc(-c2nc(=O)c3ccccc3s2)ccn1
melting point: 146 to 147 °C
//
compound: COC1Cc2nc3cc(N)ccc3n2C1 (centres undefined)
melting point: 140 to 142 °C
//
compound: CCCCc1nc2c(N)nc3ccccc3c2n1CCCCN1CCCS1(=O)=O
melting point: 173 to 176 °C
//
compound: CC(C)Oc1ccc(/C=C(\NC(=O)c2ccc(OCCCC3CC3)cc2)C(=O)NCCO)cc1
melting point: 64 to 66 °C

input: Returns the measured melting point for the input compound. Input: COC1=CC(=NC2CCCCC2)c2ccccc2C1=O
output: 145 to 147 °C

input: Then what about the compound COC(=S)NC[C@H]1CN(c2ccc(-c3nc(Cn4cccn4)cs3)c(F)c2)C(=O)O1 ?
output: 157 to 158 °C

input: Then what about the compound O=c1c(C2=Nc3ccccc3S(=O)(=O)N2)c(O)c2ccccc2n1CC1CCCCC1 ?
output: 232 to 235 °C

input: Then what about the compound COc1ccc(C(=O)Nc2ccccc2)cc1Nc1cccc(C)c1 ?
output: 160 to 161 °C

input: Then what about the compound CCCCC1NC(C(=O)OC)Cc2c1[nH]c1ccccc21 (centres undefined) ?
output: 102 to 103 °C

input: Then what about the compound COC(=O)CCc1ccc(CNC(=O)[C@@H]2Cc3ccccc3N2S(=O)(=O)c2ccc(C(C)(C)C)cc2)cc1 ?
output: 56 °C

input: Then what about the compound CCCCN(Cc1ccc(-c2ccccc2C(=N)NO)cc1)c1ncccc1C(=O)OCC ?
output: 181 to 182 °C

input: Then what about the compound CCC1(C(F)(F)F)C(=O)NC(=O)NC1=O ?
output: 208 to 209 °C
